Test system: S. aureus E33
MEASUREMENT_DESCRIPTION: MIC, alternative method: agar dilution test with 20% defibrinated horse blood
Assay type: cell-based
MEASUREMENT_SETUP: Staphylococcus aureus, E33, read-out: MIC S. aureus E33
Structures can show the parent of a compound that is named as a salt.
METRIC_NAME: MIC (µg/mL)
Answer in µg/mL, number only, no unit symbol.

Data point: CN1C(=O)[C@H](C[C@@H](O)CN)NC(=O)[C@@H](N)Cc2cc(ccc2O)-c2ccc(O)c(c2)C[C@H]1C(=O)NCCN [Example 1, trihydrochloride] ; MIC = 4

GET /value?item= NCCC[C@@H]1NC(=O)[C@@H](N)Cc2cc(ccc2O)-c2ccc(O)c(c2)C[C@@H](C(=O)NCCN)NC1=O [Example 6] &field=MIC returns 0.5

Briefly, MIC measured for CN1C(=O)[C@H](CCCN)NC(=O)[C@@H](N)Cc2cc(ccc2O)-c2ccc(O)c(c2)C[C@H]1C(=O)NCCN [Example 3, trihydrochloride] : 2

Reported MIC of NCCC[C@H](N)CNC(=O)[C@@H]1Cc2cc(ccc2O)-c2ccc(O)c(c2)C[C@H](N)C(=O)N[C@@H](CCCN)C(=O)N1 [Example 45] : 0.5
